These entries and their values trace back to patent US20160368961A1.

- Target under test: somatostatin receptor SSTR2 (Human, UniProt P30874 1-369)
- Sequence (P30874 whole entry): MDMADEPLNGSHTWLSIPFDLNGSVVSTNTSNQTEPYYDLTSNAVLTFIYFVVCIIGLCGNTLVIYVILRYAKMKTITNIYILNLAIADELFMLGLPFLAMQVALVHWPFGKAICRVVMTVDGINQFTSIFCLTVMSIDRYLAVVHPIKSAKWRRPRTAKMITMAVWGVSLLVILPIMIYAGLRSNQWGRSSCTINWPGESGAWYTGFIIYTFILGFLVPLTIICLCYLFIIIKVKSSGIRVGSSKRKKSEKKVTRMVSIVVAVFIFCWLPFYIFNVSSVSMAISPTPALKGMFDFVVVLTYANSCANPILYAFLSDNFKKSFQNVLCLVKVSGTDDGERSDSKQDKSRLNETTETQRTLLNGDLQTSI
- Assay text: competitive radioligand binding
Positions of bridges follow the written chain, without caps; N, C: chain ends. No end group written: not given here. dimannose = dimannose sugar chain attached to the residue
Experimental readout: Ki (nM)
One number for each entry, in nM.

# Binder, Experimental readout, Observed measurement
measured = [
    ("C(disialo sugar chain)ANSNPAMAPRERKAGCKNFFWKTFTSC-NH2 (disulfide 17-28) [S1C(disialo)-SRIF28-amide]", "Ki", 0.7),
]

# next binder below
Ask | Record request: Ki value, item N(disialo sugar chain)ANSNPAMAPRERKAGCKC(dimannose)FFWKTFTSC (disulfide 17-28) [S1N(disialo).N19C(diMan)-SRIF28]
Reply | 3
